Biological target: T1, human IL-11 (human, UniProt P20809 22-199)
T1 sequence: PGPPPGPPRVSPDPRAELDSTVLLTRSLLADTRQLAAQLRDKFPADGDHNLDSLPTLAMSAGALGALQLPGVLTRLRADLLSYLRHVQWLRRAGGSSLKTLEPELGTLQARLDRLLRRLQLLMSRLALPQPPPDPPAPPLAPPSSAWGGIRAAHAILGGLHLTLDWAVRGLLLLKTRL
Assay: cell-based or functional assay
property: RGA Efficacy (%)
Field format: number, assumed %, no unit text.

Known RGA Efficacy (%) results, listed for orientation:
- TPP-29396 (antibody, human IgG1, V domains shown) VH: EVQLLESGGGLVQPGGSLRLSCAASGFTFSSYGMHWVRQAPGKGLEWVAVISYDGSYKYYADSVKGRFTISRDNSKNTLYLQMNSLRAEDTAVYYCAAGVPDYWGQGTLVTVSS VL: QSVLTQPPSASGTPGQRVTISCSGSSSNIWSDYDVHWYQQLPGTAPKLLIYSNEERPSGVPDRFSGSKSGTSASLAISGLRSEDEADYYCAAWDFSLYGPVFGGGTKLTVL: 78.9
- TPP-29392 (antibody, human IgG1, V domains shown) VH: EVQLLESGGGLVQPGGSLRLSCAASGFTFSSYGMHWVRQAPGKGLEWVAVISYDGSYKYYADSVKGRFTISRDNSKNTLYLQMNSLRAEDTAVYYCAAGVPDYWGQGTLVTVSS VL: QSVLTQPPSASGTPGQRVTISCSGSSSNIWSDYDVHWYQQLPGTAPKLLIYSNEERPSGVPDRFSGSKSGTSASLAISGLRSEDEADYYCAAWDSSLSGPVFGGGTKLTVL: 80.2

Note: attention shifts to another entry.
Entry TPP-29384 (antibody, human IgG1, V domains shown) VH: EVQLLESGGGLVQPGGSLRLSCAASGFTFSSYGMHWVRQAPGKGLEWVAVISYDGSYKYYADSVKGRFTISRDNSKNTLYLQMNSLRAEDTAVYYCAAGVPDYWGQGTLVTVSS VL: QSVLTQPPSASGTPGQRVTISCSGSSSNIGSGYDVHWYQQLPGTAPKLLIYSNEERPSGVPDRFSGSKSGTSASLAISGLRSEDEADYYCAAWDPSLSGPVFGGGTKLTVL ; RGA Efficacy (%) = 81.9
